target: Interstitial collagenase (Homo sapiens); assay: Inhibition of matrix metalloprotease-1 (HFC)
Record form. Attribute: Activity. Fill in for each entry.
One number for each entry, in nM.

[
  {
    "Compound": "CNC(=O)[C@@H](NC(=O)[C@H](CC(C)C)[C@@H](C(=O)NO)C1CCN(C)CC1)C(C)(C)C",
    "Activity / nM": 30
  }
]

Go through the list and state Activity for each entry.
1. CNC(=O)[C@@H](NC(=O)C(CC(C)C)C(O)C(=O)NO)C(C)(C)C (single isomer, unassigned)
2. CC(C)CC(C(=O)N[C@H](C(=O)Nc1ccccn1)C(C)(C)C)C(C(=O)NO)C1CCCC1 (single isomer, unassigned; 12m)
3. CNC(=O)[C@@H](NC(=O)C(CC(C)C)C(C(=O)NO)C1CCC(C(C)(C)C)CC1)C(C)(C)C (single isomer, unassigned)
4. CC(C)C[C@@H](C(=O)N[C@H](C(=O)Nc1ccccn1)C(C)(C)C)[C@@H](C(=O)NO)C1CCC(C)CC1 (some centres not stated)
5. CNC(=O)[C@@H](NC(=O)C(CC(C)C)C(C(=O)NO)C1CCCCC1)C(C)(C)C (single isomer, unassigned)

Solution:
[5, 20, 40, 5, 4]

Form field Activity, entry CNC(=O)[C@@H](NC(=O)C(CC(C)C)C(C(=O)NO)C1CC1)C(C)(C)C (single isomer, unassigned) : 20

These data points were gathered from ChEMBL document CHEMBL1131344.
